System: Kuramochi cell line
Test: Cell Viability Assay (Cell Titer-Glo, 7 days)
Assay type: cell-based
Conditions: 168 h, Kuramochi cells, 7 days incubation, read-out: PARG Cell viability (IC50)
Listed below: IC50 values for each entry.

N#CC1(NS(=O)(=O)c2ccc3c4c(C5CCN(C(=O)[C@@H]6CCCO6)CC5)ncnc4n(-c4nnc(C(F)F)s4)c3c2)CC1; < 100 nM
CC(C)C(=O)N1CCN(c2ncnc3c2c2ccc(S(=O)(=O)NC4(C#N)CC4)cc2n3-c2nnc(C(F)F)s2)C[C@H]1C; 100 to 1000 nM
N#CC1(NS(=O)(=O)c2ccc3c4c(C5=CCOCC5)ncnc4n(-c4nnc(C(F)F)s4)c3c2)CC1; 100 to 1000 nM
CCN1CCN(c2ncnc3c2c2ccc(S(=O)(=O)NC4(C#N)CC4)cc2n3-c2nnc(C(F)F)s2)CC1=O; < 100 nM
C[C@H]1CN(C(=O)N(C)C)CCN1c1ncnc2c1c1ccc(S(=O)(=O)NC3(C#N)CC3)cc1n2-c1nnc(C(F)F)s1; 100 to 1000 nM
N#CC1(NS(=O)(=O)c2ccc3c4c(N5CCC(F)(F)CC5)ncnc4n(-c4nnc(C(F)F)s4)c3c2)CC1; 100 to 1000 nM

Incoming: So what does the record say about IC50 for N#CC1(NS(=O)(=O)c2ccc3c4c(C5CCCCO5)ncnc4n(-c4nnc(C(F)F)s4)c3c2)CC1 (stereo not shown) ?
Outgoing: 100 to 1000 nM

====

Test system: Kuramochi cell line
Test: Cell Viability Assay (Cell Titer-Glo, 7 days)
Assay type: cell-based
Details: Kuramochi cells, 7 days incubation, read-out: PARG Cell viability (IC50)
pIC50: −log10 of the molar value.
measure: pIC50

Incoming: Which pIC50 reading was recorded for the compound C[C@H]1CC(c2ncnc3c2c2cc(F)c(S(=O)(=O)NC4(C)CC4)cc2n3-c2nnc(C(F)F)s2)CCN1C(=O)N(C)C (stereo partly shown) ?
Outgoing: > 7.00

====

Molecular target: hPARG (C-terminal His6-tag) (Homo sapiens (Human))
Sequence (Q86W56 whole entry): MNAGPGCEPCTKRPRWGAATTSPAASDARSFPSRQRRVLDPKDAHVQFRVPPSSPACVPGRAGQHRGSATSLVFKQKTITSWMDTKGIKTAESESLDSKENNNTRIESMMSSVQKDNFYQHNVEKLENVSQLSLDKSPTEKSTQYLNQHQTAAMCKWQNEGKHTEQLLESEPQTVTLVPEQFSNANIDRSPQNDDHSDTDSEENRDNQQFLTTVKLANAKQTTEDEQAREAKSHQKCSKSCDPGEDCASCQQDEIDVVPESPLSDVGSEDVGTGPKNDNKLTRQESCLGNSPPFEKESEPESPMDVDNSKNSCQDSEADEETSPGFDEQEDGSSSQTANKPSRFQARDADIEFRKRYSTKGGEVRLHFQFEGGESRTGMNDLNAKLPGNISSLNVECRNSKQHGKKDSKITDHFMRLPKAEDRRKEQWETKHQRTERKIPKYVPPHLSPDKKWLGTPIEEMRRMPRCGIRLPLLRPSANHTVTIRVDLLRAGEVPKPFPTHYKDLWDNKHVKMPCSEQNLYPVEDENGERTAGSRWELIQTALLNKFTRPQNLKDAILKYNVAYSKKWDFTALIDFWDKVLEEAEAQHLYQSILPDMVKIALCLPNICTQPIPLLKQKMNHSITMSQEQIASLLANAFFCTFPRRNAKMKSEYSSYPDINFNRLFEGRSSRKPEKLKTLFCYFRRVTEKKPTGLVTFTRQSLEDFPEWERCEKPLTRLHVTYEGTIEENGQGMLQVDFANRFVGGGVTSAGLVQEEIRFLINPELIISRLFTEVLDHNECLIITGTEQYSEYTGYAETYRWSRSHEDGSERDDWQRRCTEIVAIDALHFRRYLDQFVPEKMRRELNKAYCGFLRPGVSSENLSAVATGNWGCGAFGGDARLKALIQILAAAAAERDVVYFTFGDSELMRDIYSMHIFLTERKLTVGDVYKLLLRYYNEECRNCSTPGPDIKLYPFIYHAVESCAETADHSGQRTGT
The following compounds are listed with their measured IC50 values.

// below: answered compounds
CC1(C(=O)N2CCN(c3ncnc4c3c3ccc(S(=O)(=O)NC5(C#N)CC5)cc3n4-c3nnc(C(F)F)s3)CC2)CC1 [Example 10]; < 100 nM
N#CC1(NS(=O)(=O)c2ccc3c4c(N5CCN(C(=O)C6CC6(F)F)CC5)ncnc4n(-c4nnc(C(F)F)s4)c3c2)CC1 (stereo not shown) [Example 26]; < 100 nM
CN(C)C(=O)N1CC=C(c2ccnc3c2c2ccc(S(=O)(=O)NC4(C)CC4)cc2n3-c2nnc(C(F)F)s2)CC1 [Example 194]; 100 to 1000 nM
CN(C)C1CCN(c2ncnc3c2c2ccc(S(=O)(=O)NC4(C#N)CC4)cc2n3-c2nnc(C(F)F)s2)C[C@@H]1F (stereo partly shown) [Example 175]; < 100 nM
CC1(NS(=O)(=O)c2ccc3c4c(C5CCN(C(=O)N6CC[C@@H](O)C6)CC5)ncnc4n(-c4nnc(C(F)F)s4)c3c2)CC1 [Example 132]; < 100 nM
C[C@H]1CN(c2ncnc3c2c2ccc(S(=O)(=O)NC4(C#N)CC4)cc2n3-c2nnc(C(F)F)s2)CCO1 [Example 50]; < 100 nM

Incoming: Fill blank: measured IC50 of the compound C[C@H]1CN(c2ncnc3c2c2ccc(S(=O)(=O)NC4(C)CC4)cc2n3-c2nnc(C(F)F)s2)CCN1C(=O)N(C)C [Example 101] is ____.
Outgoing: < 100 nM

Incoming: For the compound shown here, CO[C@H]1CCN(c2ncnc3c2c2ccc(S(=O)(=O)NC4(C#N)CC4)cc2n3-c2nnc(C(F)F)s2)C[C@@H]1F [Example 172] , give the reported IC50.
Outgoing: < 100 nM

Incoming: Reported IC50, compound C[C@@H]1CN(C(=O)N(C)C)[C@@H](C)CN1c1ncnc2c1c1ccc(S(=O)(=O)NC3(C)CC3)cc1n2-c1nnc(C(F)F)s1 [Example 100] : ____
Outgoing: < 100 nM

Incoming: Recorded IC50 of N#CC1(NS(=O)(=O)c2ccc3c4c(N5CCN(C(=O)C6CCOCC6)CC5)ncnc4n(-c4nnc(C(F)F)s4)c3c2)CC1 [Example 12] , please.
Outgoing: < 100 nM

Incoming: // lookup IC50 for CC(C)N1CCN(c2ncnc3c2c2ccc(S(=O)(=O)NC4(C#N)CC4)cc2n3-c2nnc(C(F)F)s2)CC1=O [Example 180]
Outgoing: < 100 nM

Incoming: Need IC50, item CN(C)C(=O)C1CCN(c2ncnc3c2c2ccc(S(=O)(=O)NC4(C#N)CC4)cc2n3-c2nnc(C(F)F)s2)CC1 [Example 179]
Outgoing: < 100 nM

Incoming: Name the reported IC50 value associated with the compound COC(C)(C)C(=O)N1CCC(c2ncnc3c2c2ccc(S(=O)(=O)NC4(C#N)CC4)cc2n3-c2nnc(C(F)F)s2)CC1 [Example 119]
Outgoing: < 100 nM
